- Test system: nutsedge, yellow (yellow nutsedge, Cyperus esculentus)
- run.description: Test C greenhouse herbicide test, pre- and postemergence
- Type: in vivo
- experimental.conditions: Postemergence, 31 g ai/ha; scale 0 to 100 (0 no effect, 100 complete control)
Measured Plant response rating, Nutsedge, Yellow of individual entries

Query: Plant response rating, Nutsedge, Yellow; subject: Cc1ccc2ccc(Cl)cc2c1-c1c(O)c(C)nn(C)c1=O [Compound 144]
75

Query: Plant response rating, Nutsedge, Yellow; subject: CCCC(=O)Oc1c(C)nn(C)c(=O)c1-c1c(C)sc2ccc(C)cc12 [Compound 105]
55

Query: Plant response rating, Nutsedge, Yellow; subject: CCC(=O)Oc1c(C)nn(C)c(=O)c1-c1ccc(F)c2ccccc12 [Compound 113]
70

Query: Plant response rating, Nutsedge, Yellow; subject: Cc1nn(C)c(=O)c(-c2cccc3ccc(Br)cc23)c1O [Compound 126]
35

Query: Plant response rating, Nutsedge, Yellow; subject: COC(=O)Oc1c(C)nn(C)c(=O)c1-c1ccc(F)c2ccccc12 [Compound 130]
55

---

- Tested on: barnyardgrass (Echinochloa crus-galli)
- run.description: Test A greenhouse herbicide test, pre- and postemergence
- Type: in vivo
- experimental.conditions: Preemergence, 500 g ai/ha; 0 to 100 scale where 0 is no effect and 100 is complete control
readout: Plant response rating, Barnyardgrass
Write no unit; give the number alone.

Some entries whose results are on file:
Query: Plant response rating, Barnyardgrass; subject: `CCC(=O)Oc1c(OC)nn(C)c(=O)c1-c1c(C)sc2ccc(Cl)cc12`
40

Query: Plant response rating, Barnyardgrass; subject: `Cc1nn(C)c(=O)c(-c2cccc3ccc(Br)cc23)c1O`
80

Query: Plant response rating, Barnyardgrass; subject: `Cc1cc(C)c2sc(C)c(-c3c(OC(=O)N4CCOCC4)c(C)nn(C)c3=O)c2c1`
0

New cases:
Query: Plant response rating, Barnyardgrass; subject: `COC(=O)Oc1c(C)nn(C)c(=O)c1-c1c(C(F)(F)F)ccc2ccccc12`
70

---

- System: blackgrass (Alopecurus myosuroides)
- run.description: Test C greenhouse herbicide test, pre- and postemergence
- Assay type: in vivo
- experimental.conditions: Preemergence, 62 g ai/ha; scale 0 to 100, 0 is no effect, 100 is complete control
Measured Plant response rating, Blackgrass of individual entries
Write no unit; give the number alone.

Some entries whose results are on file:
What reported Plant response rating, Blackgrass corresponds to `CC(=O)Oc1c(Cl)nn(C)c(=O)c1-c1c(C)sc2ccc(Cl)cc12` on blackgrass (Alopecurus myosuroides)?
5

What reported Plant response rating, Blackgrass corresponds to `CCc1oc2ccc(C)cc2c1-c1c(O)c(C)nn(C)c1=O` on blackgrass (Alopecurus myosuroides)?
0

What reported Plant response rating, Blackgrass corresponds to `Cc1ccc2sc(Br)c(-c3c(O)c(C)nn(C)c3=O)c2c1` on blackgrass (Alopecurus myosuroides)?
50

New cases:
What reported Plant response rating, Blackgrass corresponds to `Cc1nn(C)c(=O)c(-c2ccc(Br)c3ccccc23)c1O` on blackgrass (Alopecurus myosuroides)?
30

What reported Plant response rating, Blackgrass corresponds to `CCc1sc2ccc(C)cc2c1-c1c(O)c(C)nn(C)c1=O` on blackgrass (Alopecurus myosuroides)?
30

What reported Plant response rating, Blackgrass corresponds to `CCCC(=O)Oc1c(C)nn(C)c(=O)c1-c1c(C)sc2ccc(C)cc12` on blackgrass (Alopecurus myosuroides)?
50

What reported Plant response rating, Blackgrass corresponds to `Cc1nn(C)c(=O)c(-c2c(C)sc3ccc(Br)cc23)c1O` on blackgrass (Alopecurus myosuroides)?
20

What reported Plant response rating, Blackgrass corresponds to `Cc1ccc2sc(C)c(-c3c(OC(=O)OC(C)C)c(C)nn(C)c3=O)c2c1` on blackgrass (Alopecurus myosuroides)?
30

What reported Plant response rating, Blackgrass corresponds to `Cc1ccc2ccccc2c1-c1c(O)c(I)nn(C)c1=O` on blackgrass (Alopecurus myosuroides)?
50

What reported Plant response rating, Blackgrass corresponds to `CCC(=O)Oc1c(C)nn(C)c(=O)c1-c1ccc(F)c2ccccc12` on blackgrass (Alopecurus myosuroides)?
50

What reported Plant response rating, Blackgrass corresponds to `Cc1nn(C)c(=O)c(-c2ccc(F)c3ccccc23)c1O` on blackgrass (Alopecurus myosuroides)?
80
